The following compounds are listed with their measured IC50 values.
# target.desc: α-Glucosidase (Saccharomyces cerevisiae, EC3.2.1.20) (Saccharomyces cerevisiae, UniProt P53341)
# Construct: purchased Sigma-Aldrich
# Sequence (P53341 whole entry): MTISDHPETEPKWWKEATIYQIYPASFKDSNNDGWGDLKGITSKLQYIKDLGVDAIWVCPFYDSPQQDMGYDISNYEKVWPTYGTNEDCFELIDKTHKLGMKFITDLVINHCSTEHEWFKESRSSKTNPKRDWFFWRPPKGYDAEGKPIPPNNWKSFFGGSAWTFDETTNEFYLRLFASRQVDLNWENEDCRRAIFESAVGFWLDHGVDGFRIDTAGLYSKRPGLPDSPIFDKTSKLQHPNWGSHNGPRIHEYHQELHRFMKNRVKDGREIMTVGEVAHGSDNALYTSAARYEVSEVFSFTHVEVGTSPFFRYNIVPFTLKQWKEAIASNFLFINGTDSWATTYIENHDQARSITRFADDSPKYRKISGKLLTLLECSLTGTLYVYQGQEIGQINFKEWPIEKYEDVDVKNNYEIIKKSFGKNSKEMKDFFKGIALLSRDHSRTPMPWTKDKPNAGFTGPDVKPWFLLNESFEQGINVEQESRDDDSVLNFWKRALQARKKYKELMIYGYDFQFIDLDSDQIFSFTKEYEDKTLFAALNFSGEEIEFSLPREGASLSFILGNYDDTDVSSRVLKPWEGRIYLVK
# assay.protocol: biochemical
# Assay type: biochemical
Only the number, expressed in µM, is required.

COc1ccc(-c2nc3cc(C(=O)Oc4ccc5ccc(=O)oc5c4)ccc3[nH]2)cc1 [Compound 5j] : 40.3
O=C(Oc1ccc2ccc(=O)oc2c1)c1ccc2[nH]c(-c3cccc(Br)c3)nc2c1 [Compound 5f] : 25.2
O=C(Oc1ccc2ccc(=O)oc2c1)c1ccc2[nH]c(-c3cccc(Cl)c3Cl)nc2c1 [Compound 5h] : 45.2
O=C(Oc1ccc2ccc(=O)oc2c1)c1ccc2[nH]c(-c3ccc(Cl)cc3)nc2c1 [Compound 5c] : 26.9
O=C(Oc1ccc2ccc(=O)oc2c1)c1ccc2[nH]c(-c3ccc(Br)cc3)nc2c1 [Compound 5d] : 22.9

Please give measured IC50 of the following entry: O=C(Oc1ccc2ccc(=O)oc2c1)c1ccc2[nH]c(-c3ccc(F)cc3F)nc2c1 [Compound 5g]
46.7

Please give measured IC50 of the following entry: O=C(Oc1ccc2ccc(=O)oc2c1)c1ccc2[nH]c(-c3ccccc3)nc2c1 [Compound 5a]
50

Please give measured IC50 of the following entry: O=C(Oc1ccc2ccc(=O)oc2c1)c1ccc2[nH]c(-c3ccccc3Cl)nc2c1 [Compound 5e]
34.7

Please give measured IC50 of the following entry: Cc1c(Cl)cccc1-c1nc2cc(C(=O)Oc3ccc4ccc(=O)oc4c3)ccc2[nH]1 [Compound 5m]
40.9

Please give measured IC50 of the following entry: Cc1c(-c2nc3cc(C(=O)Oc4ccc5ccc(=O)oc5c4)ccc3[nH]2)cccc1[N+](=O)[O-] [Compound 5l]
120

Please give measured IC50 of the following entry: Cc1ccc(-c2nc3cc(C(=O)Oc4ccc5ccc(=O)oc5c4)ccc3[nH]2)cc1 [Compound 5i]
44.9

Please give measured IC50 of the following entry: O=C(Oc1ccc2ccc(=O)oc2c1)c1ccc2[nH]c(-c3ccc(F)cc3)nc2c1 [Compound 5b]
30.6

Please give measured IC50 of the following entry: O=C(Oc1ccc2ccc(=O)oc2c1)c1ccc2[nH]c(-c3ccccc3O)nc2c1 [Compound 5k]
10.8
